Data origin: patent US8822462B2

activity at 100 µM reference
# ASSAYED_TARGET: NR1/NR2C (Homo sapiens, UniProt Q05586+Q14957)
# Construct: expressed in transfected cells; host or cells: Xenopus laevis oocytes
# Sequence (Q14957 20-1233, species assumed, other chains not shown): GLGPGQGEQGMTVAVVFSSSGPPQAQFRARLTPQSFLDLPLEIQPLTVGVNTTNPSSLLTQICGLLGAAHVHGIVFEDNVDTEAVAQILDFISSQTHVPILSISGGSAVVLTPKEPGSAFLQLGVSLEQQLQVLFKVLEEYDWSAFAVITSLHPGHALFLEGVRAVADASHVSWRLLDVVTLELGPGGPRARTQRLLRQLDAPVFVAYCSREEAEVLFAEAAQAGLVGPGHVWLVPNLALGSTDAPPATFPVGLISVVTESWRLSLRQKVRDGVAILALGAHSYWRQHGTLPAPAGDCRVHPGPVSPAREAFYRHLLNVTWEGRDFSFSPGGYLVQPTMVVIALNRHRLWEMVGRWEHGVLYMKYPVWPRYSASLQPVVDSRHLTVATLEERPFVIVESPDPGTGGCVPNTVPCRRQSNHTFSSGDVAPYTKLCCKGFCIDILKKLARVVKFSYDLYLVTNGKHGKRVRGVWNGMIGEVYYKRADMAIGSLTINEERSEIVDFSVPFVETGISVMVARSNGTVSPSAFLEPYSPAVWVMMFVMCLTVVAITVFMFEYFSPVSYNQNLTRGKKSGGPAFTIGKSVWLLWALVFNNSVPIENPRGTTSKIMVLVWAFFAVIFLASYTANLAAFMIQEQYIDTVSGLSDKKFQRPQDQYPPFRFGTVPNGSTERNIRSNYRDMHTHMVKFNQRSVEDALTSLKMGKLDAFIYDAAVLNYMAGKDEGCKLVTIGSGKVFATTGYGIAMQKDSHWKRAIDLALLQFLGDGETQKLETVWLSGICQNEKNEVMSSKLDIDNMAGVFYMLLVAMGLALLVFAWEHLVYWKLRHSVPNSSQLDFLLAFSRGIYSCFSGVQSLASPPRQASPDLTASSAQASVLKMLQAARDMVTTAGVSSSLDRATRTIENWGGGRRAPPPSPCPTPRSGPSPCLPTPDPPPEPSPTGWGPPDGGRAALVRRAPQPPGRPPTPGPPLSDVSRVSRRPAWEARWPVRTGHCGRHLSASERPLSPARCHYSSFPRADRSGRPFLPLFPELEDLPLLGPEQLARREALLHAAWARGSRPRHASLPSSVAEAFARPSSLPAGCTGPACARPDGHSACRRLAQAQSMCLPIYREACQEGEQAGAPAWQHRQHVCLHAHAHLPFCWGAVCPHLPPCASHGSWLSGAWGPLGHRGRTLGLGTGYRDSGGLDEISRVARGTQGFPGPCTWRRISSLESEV
# ASSAY_TEXT: Two electrode voltage clamp, Xenopus laevis oocytes expressing NR1/NR2C
# Type: cell-based
# CONDITION_SET: at 100 μM; read-out: 2C percent effect at the maximum tested concentration
Output spec: scalar in %, unitless text.

Example entries begin here.
COc1ccc(OCC2c3cc(OC)c(OC)cc3CCN2C(=S)Nc2cccc(Cl)c2)cc1 (centres unmarked) [compound 1415] :: 99
COc1ccc(OCC2c3cc(OC)c(OC)cc3CCN2S(=O)(=O)c2ccccc2)cc1 (centres unmarked) [compound 1487] :: 69
COc1ccc(OCC2c3cc(OC)c(OC)cc3CCN2Cc2ccccc2)cc1 (centres unmarked) [1180-17] :: 95

Notebook: COc1ccc(OCC2c3cc(OC)c(OC)cc3CCN2C(=S)Nc2cccc(C)c2)cc1 (centres unmarked) [compound 1413] , activity at 100 µM read as 102

Notebook: COc1ccc(NC(O)C2CN(C(C)C)C(=O)c3cc(OC)c(OC)cc32)c(OC)c1 (centres unmarked) [compound 1440] , activity at 100 µM read as 71

Notebook: COc1ccc(OCC2c3cc(OC)c(OC)cc3CCN2C(=O)c2ccncc2)cc1 (centres unmarked) [compound 1510] , activity at 100 µM read as 90

Notebook: COc1cccc(OCC2c3cc(OC)c(OC)cc3CCN2C(=O)c2cccc(Cl)c2)c1 (centres unmarked) [1180-6] , activity at 100 µM read as 94

Notebook: COc1cc2c(cc1OC)CN(C(=O)c1cccc(Cl)c1)CC2 [1180-29] , activity at 100 µM read as 82
